Substrate: CC(C)C[C@@H](N)C(=O)O
TEST_METHOD_NOTES: purified protein
EXPERIMENTAL_PARAMETERS: 50 mM potassium phosphate pH 8.0, 30 °C, air-saturated
Kindly state Km for each of the entries shown.
Numbers only, in µM.

PROTEIN	RESULT_UNITS	Km
TvDAAO (Trigonopsis variabilis; S67A) (protein, recombinant tvdaao gene in pET-33b(+) based plasmid, E. coli BL21(DE3) CodonPlus/pLysS; MonoQ purified; FAD homodimer; no tag stated) MAKIVVIGAGVAGLTTALQLLRKGHEVTIVSEFTPGDLSIGYTSPWAGANWLTFYDGGKLADYDAVAYPILRELARSSPEAGIRLISQRSHVLKRDLPKLEVAMSAICQRNPWFKNTVDSFEIIEDRSRIVHDDVAYLVEFRSVCIHTGVYLNWLMSQCLSLGATVVKRRVNHIKDANLLHSSGSRPDVIVNCSGLFARFLGGVEDKKMYPIRGQVVLVRNSLPFMASFSSTPEKENEDEALYIMTRFDGTSIIGGCFQPNNWSSEPDPSLTHRILSRALDRFPELTKDGPLDIVRECVGHRPGREGGPRVELEKIPGVGFVVHNYGAAGAGYQSSYGMADEAVSYVERALTRPNL	µM	340

Below: the item to evaluate.
# query: Km of entry TvDAAO (Trigonopsis variabilis; S105A) (protein) MAKIVVIGAGVAGLTTALQLLRKGHEVTIVSEFTPGDLSIGYTSPWAGANWLTFYDGGKLADYDAVSYPILRELARSSPEAGIRLISQRSHVLKRDLPKLEVAMAAICQRNPWFKNTVDSFEIIEDRSRIVHDDVAYLVEFRSVCIHTGVYLNWLMSQCLSLGATVVKRRVNHIKDANLLHSSGSRPDVIVNCSGLFARFLGGVEDKKMYPIRGQVVLVRNSLPFMASFSSTPEKENEDEALYIMTRFDGTSIIGGCFQPNNWSSEPDPSLTHRILSRALDRFPELTKDGPLDIVRECVGHRPGREGGPRVELEKIPGVGFVVHNYGAAGAGYQSSYGMADEAVSYVERALTRPNL
280
